Listing of entries alongside the reported ΔTm.
# systemUnderTest: GLT8D1 (recombinant secretory glycosyltransferase 8 domain-containing protein 1) (Homo sapiens, UniProt Q68CQ7)
# Construct: lumenal catalytic domain 52-371; GFP fusion kept; secreted from HEK293-F cells; N-glycosylated; expected mass 67,624 Da
# Sequence (Q68CQ7 52-371): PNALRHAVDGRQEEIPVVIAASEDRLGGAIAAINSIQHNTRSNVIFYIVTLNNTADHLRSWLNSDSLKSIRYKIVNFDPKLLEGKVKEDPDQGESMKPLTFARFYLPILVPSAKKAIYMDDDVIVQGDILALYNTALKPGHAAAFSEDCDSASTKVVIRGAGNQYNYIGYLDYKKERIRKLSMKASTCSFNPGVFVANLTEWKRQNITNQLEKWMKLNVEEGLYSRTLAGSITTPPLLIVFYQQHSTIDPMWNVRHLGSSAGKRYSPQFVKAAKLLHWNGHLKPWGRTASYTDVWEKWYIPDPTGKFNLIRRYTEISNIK
# testMethodNotes: intrinsic tryptophan fluorescence DSF (nanoDSF)
# Assay type: binding
# assayContext: 0.1 mM ligand, 1 mM MnCl2, 50 mM Tris-HCl pH 7.5; shift relative to Mn2+ alone
assayEndpoint: ΔTm

molecularstring=CC(=O)N[C@H]1[C@@H](OP(=O)(O)OP(=O)(O)OC[C@H]2O[C@@H](n3ccc(=O)[nH]c3=O)[C@H](O)[C@@H]2O)O[C@H](CO)[C@@H](O)[C@@H]1O valuemeasured="~ 2 °C"
molecularstring=O=c1ccn([C@@H]2O[C@H](COP(=O)(O)OP(=O)(O)O[C@H]3OC[C@@H](O)[C@H](O)[C@H]3O)[C@@H](O)[C@H]2O)c(=O)[nH]1 valuemeasured="~ 2 °C"
molecularstring=CC(=O)N[C@H]1[C@@H](OP(=O)(O)OP(=O)(O)OC[C@H]2O[C@@H](n3ccc(=O)[nH]c3=O)[C@H](O)[C@@H]2O)O[C@H](CO)[C@H](O)[C@@H]1O valuemeasured="~ 2 °C"

// data source = paper PMC10709319
